Provide the reported Kb of each item.
- target-entity: 5-HT2A receptor (Rattus norvegicus)
- Construct: Eight strips of tissue (0.5 cm long) were cut. and were mounted in 10 ml organ baths; tissue Charles River Laboratories; host or cells: rat aorta strips, endothelium removed
- assay-summary: cell-based
- condition-context: read-out: 5HT2A (pKb) (converted)
- Procedure: The rat aorta (approximately 7 cm) was isolated and removed from the animal (male Sprague Dawley rat, Charles River Laboratories, Hollister, Calif.). The endothelium was removed mechanically. […] Contractions were recorded as changes in tension from baseline and expressed as a percentage of the maximum response of the agonist (5-HT) concentration-effect curve. […] All data are expressed as mean±s.e. mean.

COCCNC(=O)C[C@H]1CN(C2=Nc3cc(Cl)ccc3Oc3ccccc32)CCN1: 3.16 to 9.77 nM
COC(=O)CC1CN(C2=Nc3cc(Cl)ccc3Oc3ccccc32)CCN1 (stereo not drawn): 10 to 30.9 nM

Dear colleague, could you please provide Kb for the compounds listed below?
1. C[C@H](CC(C)(C)O)OC(=O)C[C@H]1CN(C2=Nc3cc(Cl)ccc3Oc3ccccc32)CCN1
2. O=C(C[C@H]1CN(C2=Nc3cc(Cl)ccc3Oc3ccccc32)CCN1)NC[C@@H]1CCCO1
3. CC[C@H](C)OC(=O)C[C@H]1CN(C2=Nc3cc(Cl)ccc3Oc3ccccc32)CCN1

["3.16 to 9.77 nM", "3.16 to 9.77 nM", "10 to 30.9 nM"]

Dear colleague, could you please provide Kb for the compounds listed below?
1. O=C(C[C@H]1CN(C2=Nc3cc(Cl)ccc3Oc3ccccc32)CCN1)O[C@H]1CCOC1
2. COC(=O)c1ccc(OCC2CN(C3=Nc4cc(Cl)ccc4Oc4ccccc43)CCN2)cc1 (stereo not drawn)
3. CC(C)(CO)NC(=O)C[C@H]1CN(C2=Nc3cc(Cl)ccc3Oc3ccccc32)CCN1
4. O=C(C[C@H]1CN(C2=Nc3cc(Cl)ccc3Oc3ccccc32)CCN1)NCC(F)F
5. CN1CCN(C2=Nc3cc(Cl)ccc3Oc3ccccc32)C[C@@H]1CC(=O)OC1CCOCC1

3.16 to 9.77 nM
10 to 30.9 nM
3.16 to 9.77 nM
10 to 30.9 nM
31.6 to 97.7 nM

====

pKi: −log10 of the molar value.
Parameter pKi, tested on human D2s dopamine receptors (Homo sapiens, UniProt P14416), listed per item.
Sequence (P14416 1-414 isoform P14416-2): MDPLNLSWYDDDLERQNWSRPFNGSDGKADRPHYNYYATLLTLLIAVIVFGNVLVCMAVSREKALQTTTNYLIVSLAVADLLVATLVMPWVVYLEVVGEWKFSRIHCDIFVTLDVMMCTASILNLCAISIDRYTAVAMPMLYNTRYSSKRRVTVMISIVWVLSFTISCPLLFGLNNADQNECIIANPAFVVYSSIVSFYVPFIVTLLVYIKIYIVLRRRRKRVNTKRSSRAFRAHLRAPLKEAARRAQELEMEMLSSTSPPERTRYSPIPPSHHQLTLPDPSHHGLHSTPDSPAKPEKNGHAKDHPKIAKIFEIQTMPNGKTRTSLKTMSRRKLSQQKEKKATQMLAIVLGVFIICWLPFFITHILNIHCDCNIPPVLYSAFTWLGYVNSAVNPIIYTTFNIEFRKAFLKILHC

CCOC(=O)C[C@@H]1CN(C2=Nc3cc(Cl)ccc3Oc3ccccc32)CCN1: 5.01 to 5.60
C[C@@H](O)CNC(=O)C[C@H]1CN(C2=Nc3cc(Cl)ccc3Oc3ccccc32)CCN1: 5.61 to 6.20
O=C(O)C[C@@H]1CN(C2=Nc3cc(Cl)ccc3Oc3ccccc32)CCN1: < 5.00

Dear colleague, could you please provide pKi for the compounds listed below?
1. CN(CCO)C(=O)C[C@H]1CN(C2=Nc3cc(Cl)ccc3Oc3ccccc32)CCN1
2. O=C(C[C@H]1CN(C2=Nc3cc(Cl)ccc3Oc3ccccc32)CCN1)NC[C@@H]1CCCO1
3. CC[C@H](C)OC(=O)C[C@H]1CN(C2=Nc3cc(Cl)ccc3Oc3ccccc32)CCN1
4. CCOC(=O)CC1CN(C2=Nc3ccc(F)cc3Oc3ccccc32)CCN1 (centres unmarked)
5. O=C(C[C@H]1CN(C2=Nc3cc(Cl)ccc3Oc3ccccc32)CCN1)OC1CCCC1

5.01 to 5.60
6.21 to 6.80
6.21 to 6.80
5.01 to 5.60
5.61 to 6.20

====

- target-entity: human M1 receptors (Homo sapiens, UniProt P11229)
- Sequence (P11229 whole entry): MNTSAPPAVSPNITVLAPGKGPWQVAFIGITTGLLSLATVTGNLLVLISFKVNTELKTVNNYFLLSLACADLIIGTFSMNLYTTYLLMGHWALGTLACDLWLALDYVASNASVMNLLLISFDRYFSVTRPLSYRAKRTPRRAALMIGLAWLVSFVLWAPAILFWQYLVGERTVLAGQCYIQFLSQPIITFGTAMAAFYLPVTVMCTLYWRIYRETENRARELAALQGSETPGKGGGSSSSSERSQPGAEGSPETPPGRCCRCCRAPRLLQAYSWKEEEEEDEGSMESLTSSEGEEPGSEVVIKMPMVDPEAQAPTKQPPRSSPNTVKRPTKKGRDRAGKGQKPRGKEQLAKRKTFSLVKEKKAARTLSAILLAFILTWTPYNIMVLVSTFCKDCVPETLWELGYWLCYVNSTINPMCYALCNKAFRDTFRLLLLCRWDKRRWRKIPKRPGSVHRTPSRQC
pKi: −log10 of the molar value.
readout: pKi

Dear colleague, could you please provide pKi for the compounds listed below?
1. C[C@H](O)C[C@H](C)OC(=O)C[C@H]1CN(C2=Nc3cc(Cl)ccc3Oc3ccccc32)CCN1
2. CN1CCN(C2=Nc3cc(Cl)ccc3Oc3ccccc32)C[C@@H]1CC(=O)N(CC(F)(F)F)CC(F)(F)F
3. O=C(C[C@H]1CN(C2=Nc3cc(Cl)ccc3Oc3ccccc32)CCN1)O[C@@H]1CN2CCC1CC2
4. COC(=O)C[C@H]1CN(C2=Nc3cc(Cl)ccc3Oc3ccccc32)CCN1C
5. CC(C)OC(=O)CC1CN(C2=Nc3ccc(F)cc3Oc3ccccc32)CCN1 (centres unmarked)
6. CN1CCN(C2=Nc3cc(Cl)ccc3Oc3ccccc32)C[C@@H]1CC(=O)NCC(F)(F)C(F)(F)F

< 5.00
5.01 to 5.30
5.01 to 5.30
≥ 5.91
< 5.00
< 5.00

Dear colleague, could you please provide pKi for the compounds listed below?
1. O=C(O)C[C@H]1CN(C2=Nc3cc(Cl)ccc3Oc3ccccc32)CCN1
2. O=C(C[C@H]1CN(C2=Nc3cc(Cl)ccc3Oc3ccccc32)CCN1)OC1CCCC1

< 5.00
5.61 to 5.90

====

Provide the reported pKi of each item.
Target protein (sequence): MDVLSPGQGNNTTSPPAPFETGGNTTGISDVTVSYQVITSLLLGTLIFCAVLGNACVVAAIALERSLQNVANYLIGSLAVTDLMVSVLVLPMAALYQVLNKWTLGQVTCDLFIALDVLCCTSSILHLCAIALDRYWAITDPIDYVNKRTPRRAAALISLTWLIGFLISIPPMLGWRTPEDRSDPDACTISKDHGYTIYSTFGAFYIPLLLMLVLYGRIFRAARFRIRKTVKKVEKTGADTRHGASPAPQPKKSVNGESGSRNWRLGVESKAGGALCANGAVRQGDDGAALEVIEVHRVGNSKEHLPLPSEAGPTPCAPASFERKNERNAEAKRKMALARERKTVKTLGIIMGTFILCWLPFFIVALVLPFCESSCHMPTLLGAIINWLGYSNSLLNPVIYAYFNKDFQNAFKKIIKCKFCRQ
pKi: −log10 of the molar value.

O=C(C[C@H]1CN(C2=Nc3cc(Cl)ccc3Oc3ccccc32)CCN1)NCC(O)C(F)(F)F (stereo partly drawn): 6.01 to 7.00
O=C(C[C@H]1CN(C2=Nc3cc(Cl)ccc3Oc3ccccc32)CCN1)N1CCC[C@H]1C(F)(F)F: 6.01 to 7.00
CCOC(=O)CC1CN(C2=Nc3ccc(F)cc3Oc3ccccc32)CCN1 (stereo not drawn): 6.01 to 7.00
CCOC(=O)C[C@H]1CN(C2=Nc3cc(Cl)ccc3Oc3ccccc32)CCN1: 6.01 to 7.00
C[C@H](CC(C)(C)O)OC(=O)C[C@H]1CN(C2=Nc3cc(Cl)ccc3Oc3ccccc32)CCN1: 7.01 to 8.00
COC(=O)C[C@@H]1CN(C2=Nc3cc(Cl)ccc3Oc3ccccc32)CCN1: 5.01 to 6.00

Dear colleague, could you please provide pKi for the compounds listed below?
1. CCOC(=O)C[C@H]1CN(C2=Nc3cc(Cl)ccc3Oc3ccccc32)CCN1CCC(C)C
2. CN1CCN(C2=Nc3cc(Cl)ccc3Oc3ccccc32)C[C@@H]1CC(=O)NC(CF)CF
3. CN1CCN(C2=Nc3cc(Cl)ccc3Oc3ccccc32)C[C@@H]1CC(=O)NCC(F)(F)C(F)(F)F

1. 5.01 to 6.00
2. 5.01 to 6.00
3. 5.01 to 6.00

====

- target-entity: 5-HT2A receptor (Rattus norvegicus, UniProt P14842)
- Construct: Eight strips of tissue (0.5 cm long) were cut. and were mounted in 10 ml organ baths; tissue Charles River Laboratories; host or cells: rat aorta strips, endothelium removed
- Sequence (P14842 whole entry): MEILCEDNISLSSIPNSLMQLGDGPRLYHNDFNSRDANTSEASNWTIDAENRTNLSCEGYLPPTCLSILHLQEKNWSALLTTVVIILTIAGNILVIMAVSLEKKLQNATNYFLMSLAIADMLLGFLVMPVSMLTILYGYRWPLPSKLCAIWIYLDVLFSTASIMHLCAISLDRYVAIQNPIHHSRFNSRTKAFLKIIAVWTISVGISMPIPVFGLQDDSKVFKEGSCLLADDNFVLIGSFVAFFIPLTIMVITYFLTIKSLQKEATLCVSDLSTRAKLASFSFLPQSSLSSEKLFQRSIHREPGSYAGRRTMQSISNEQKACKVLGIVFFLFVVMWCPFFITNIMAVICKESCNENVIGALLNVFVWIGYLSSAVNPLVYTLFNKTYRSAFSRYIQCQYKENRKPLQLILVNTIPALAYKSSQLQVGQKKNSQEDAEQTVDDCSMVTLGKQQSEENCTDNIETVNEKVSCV
- assay-summary: cell-based
- condition-context: read-out: 5HT2A (pKb) (converted)
readout: Kb

# count of solved cases: 2
CCOC(=O)CC1CN(C2=Nc3ccc(F)cc3Oc3ccccc32)CCN1 (stereo not drawn): 31.6 to 97.7 nM
CC(C)(C)COC(=O)C[C@H]1CN(C2=Nc3cc(Cl)ccc3Oc3ccccc32)CCN1: 10 to 30.9 nM

Dear colleague, could you please provide Kb for the compounds listed below?
1. COC(=O)C[C@H]1CN(C2=Nc3cc(Cl)ccc3Oc3ccccc32)CCN1C
2. O=C(C[C@H]1CN(C2=Nc3cc(Cl)ccc3Oc3ccccc32)CCN1)N1CCOCC1
3. COC(=O)C[C@H]1CN(C2=Nc3cc(Cl)ccc3Oc3ccccc32)CCN1
4. O=C(C[C@H]1CN(C2=Nc3cc(Cl)ccc3Oc3ccccc32)CCN1)NCCCO
5. COC(=O)C[C@@H]1CN(C2=Nc3cc(Cl)ccc3Oc3ccccc32)CCN1
6. COCCCNC(=O)C[C@H]1CN(C2=Nc3cc(Cl)ccc3Oc3ccccc32)CCN1
7. CCOC(=O)CC1CN(C2=Nc3cc(Cl)ccc3Oc3ccccc32)CCN1 (stereo not drawn)

31.6 to 97.7 nM
3.16 to 9.77 nM
3.16 to 9.77 nM
3.16 to 9.77 nM
31.6 to 97.7 nM
10 to 30.9 nM
10 to 30.9 nM

====

- target-entity: human M3 receptors (Homo sapiens)
- Construct: expressed in transfected cells; host or cells: Chinese hamster ovary cells (membranes)
- Sequence (P20309 whole entry): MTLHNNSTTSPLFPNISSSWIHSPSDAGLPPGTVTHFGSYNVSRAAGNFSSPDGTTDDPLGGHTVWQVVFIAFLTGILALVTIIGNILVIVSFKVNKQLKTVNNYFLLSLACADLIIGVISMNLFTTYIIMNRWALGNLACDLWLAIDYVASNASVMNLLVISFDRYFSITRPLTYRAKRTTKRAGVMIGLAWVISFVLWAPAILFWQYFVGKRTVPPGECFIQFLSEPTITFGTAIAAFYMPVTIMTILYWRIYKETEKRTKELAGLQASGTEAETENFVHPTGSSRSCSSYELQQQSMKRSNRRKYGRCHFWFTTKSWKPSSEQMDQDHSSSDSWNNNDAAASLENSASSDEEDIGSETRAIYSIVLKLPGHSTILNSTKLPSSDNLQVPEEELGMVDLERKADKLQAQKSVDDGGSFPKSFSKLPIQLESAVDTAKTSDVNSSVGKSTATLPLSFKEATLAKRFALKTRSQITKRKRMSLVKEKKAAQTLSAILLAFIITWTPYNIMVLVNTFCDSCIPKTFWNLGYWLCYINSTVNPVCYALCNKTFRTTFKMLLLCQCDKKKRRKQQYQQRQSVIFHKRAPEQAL
- assay-summary: hM3 receptor radioligand binding ([3H]NMS)
- Source text: Consistent with standard competition radioligand binding assays, the methodology was based on displacement of radioligand from tissues (or cell lines) bearing the receptor of interest (Cheng, Y. and Prusoff, W. H. (1973). Biochem. Pharmacol. 22, 3099-3108). The measurements were based on the binding of a single concentration of radiolabeled ligand in the presence of various concentrations of unlabeled ligand. […]
readout: Ki

# count of solved cases: 2
CN1CCN(C2=Nc3cc(Cl)ccc3Oc3ccccc32)C[C@@H]1CC(=O)O[C@@H]1CN2CCC1CC2: > 10 µM
O=C(C[C@H]1CN(C2=Nc3cc(Cl)ccc3Oc3ccccc32)CCN1)O[C@@H]1CN2CCC1CC2: > 10 µM

Fill in the recorded Ki for this compound, with human M3 receptors (Homo sapiens) as test system: `O=C(C[C@H]1CN(C2=Nc3cc(Cl)ccc3Oc3ccccc32)CCN1)O[C@H]1CN2CCC1CC2`
> 10 µM
